assay explanation: Selectivity index, ratio of CC50 for human TZM-bl cells to EC50 for R5 tropic Human immunodeficiency virus 1 ADA5 subtype B
Format: toxicity, cell-based
condition context: read-out: Ratio CC50/EC50
Give measured selectivity ratio for each item. Keep answers brief.
Answers are plain numbers.

# example entries with known answers
COc1cc(OC)nc(N2C(=O)CSC2c2c(OC)cccc2OC)n1 (centres undefined): 37.8
Cc1cc(N2C(=O)CSC2c2ccc(C#N)cc2)no1 (centres undefined): 1.72

Record selectivity ratio for all entries; do not skip any.
1. Cc1ccnc(N2C(=O)CSC2c2ccc(C#N)cc2)n1 (centres undefined)
2. Cc1ccnc2c1NC(=O)c1cccnc1N2C1CC1

output:
1: 2.2; 2: 2060

Below is a list of compounds. For each, state its recorded selectivity ratio.
1. Cc1cc(N2C(=O)CSC2c2c(F)cccc2F)nc(C)c1Br (centres undefined)
2. N#Cc1ccc(C2SCC(=O)N2c2ccc(C#N)cn2)cc1 (centres undefined)
3. COc1cc(OC)nc(N2C(=O)CSC2c2c(Cl)cccc2[N+](=O)[O-])n1 (centres undefined)
4. O=C1CSC(c2c(F)cccc2F)N1c1ncnc2[nH]cnc12 (centres undefined)
5. COc1cc(OC)nc(N2C(=O)CSC2c2c(Cl)cccc2Cl)n1 (centres undefined)
6. COc1cc(OC)nc(N2C(=O)CSC2c2c(F)cccc2F)n1 (centres undefined)
7. COc1cc(OC)nc(N2C(=O)CSC2c2c(F)cccc2Cl)n1 (centres undefined)
8. O=C1CSC(c2c(Cl)cccc2Cl)N1Nc1ccccn1 (centres undefined)

output:
95.9
1.71
366
1.45
855
250
614
80.5

Hi, could you look up selectivity ratio for each item in my list?
1. O=C1CSC(c2c(F)cccc2F)N1Nc1ccccn1 (centres undefined)
2. Cc1cc(C)nc(N2C(=O)CSC2c2ccc(C#N)cc2)c1 (centres undefined)
3. Cc1cc(N2C(=O)CSC2c2ccc(C#N)cc2)nc(C)c1Br (centres undefined)

output:
1: 5.56; 2: 5.62; 3: 1.11

For every item in the list below, what is its measured selectivity ratio?
1. Cc1cc(C)nc(N2C(=O)CSC2c2ccc(C#N)cc2)n1 (centres undefined)
2. N#Cc1ccc(NN2C(=O)CSC2c2c(F)cccc2Cl)cc1 (centres undefined)
3. N#Cc1ccc(NN2C(=O)CSC2c2c(F)cccc2F)cc1 (centres undefined)
4. N#Cc1ccc(N2C(=O)CSC2c2c(Cl)cccc2Cl)nc1 (centres undefined)
5. Cc1cc(C)nc(N2C(=O)CSC2c2c(Cl)cccc2[N+](=O)[O-])c1 (centres undefined)

output:
1. 1.13
2. 4.7
3. 1.58
4. 13
5. 1740

Each compound below has a reported value. Please supply its selectivity ratio.
1. O=C1CSC(c2c(Cl)cccc2Cl)N1c1ncnc2[nH]cnc12 (centres undefined)
2. N#Cc1ccc(C2SCC(=O)N2c2ccc(C#N)cc2)cc1 (centres undefined)
3. N#Cc1ccc(NN2C(=O)CSC2c2c(Cl)cccc2Cl)cc1 (centres undefined)
4. Cc1ccc(S(=O)(=O)NN2C(=O)CSC2c2c(F)cccc2Cl)cc1 (centres undefined)

output:
[1.11, 1.22, 12, 2.1]

----------
assay explanation: Selectivity index, ratio of CC50 for human TZM-bl cells to EC50 for R5 tropic Human immunodeficiency virus 1 ADA5 subtype B
Type: toxicity, cell-based
condition context: read-out: Ratio CC50/EC50
experimental readout: selectivity ratio
Give bare numbers.

Consider the reported selectivity ratio for these molecules:
Cc1cccc(C)c1C1SCC(=O)N1NC(=O)c1ccncc1 (stereo unspecified): 2.29
COc1cccc(OC)c1C1SCC(=O)N1c1cc(C)c(Br)c(C)n1 (stereo unspecified): 56.8
COc1cc(OC)nc(N2C(=O)CSC2c2ccc(C#N)cc2)n1 (stereo unspecified): 1.51
Cc1ccc(S(=O)(=O)NN2C(=O)CSC2c2c(Cl)cccc2Cl)cc1 (stereo unspecified): 16.6
O=C1CSC(c2c(F)cccc2Cl)N1Nc1ccccn1 (stereo unspecified): 40.2

input: Report selectivity ratio for O=C(NN1C(=O)CSC1c1c(Cl)cccc1Cl)c1ccncc1 (stereo unspecified) please.
output: 17.5
